- TARGET_SYSTEM: Glutamate receptor ionotropic, kainate
- METHOD: Inhibition of [3H]-kainic acid binding to kainate receptor of rat cortical membrane

{"columns": ["COMPOUND", "IC50"],
 "data": [
  ["O=C(O)c1cc(O)c2c(Cl)cc(Cl)cc2n1", "> 300 µM"],
  ["O=C(O)c1cc(=O)c2ccccc2[nH]1 [TRANSTORINE]", "> 1000 µM"],
  ["O=C(O)c1cc(O)c2cc(Cl)ccc2n1", "> 300 µM"],
  ["O=C(O)c1cc(O)c2ccc(Cl)cc2n1", "> 1000 µM"]
]}

* * *

- TARGET_SYSTEM: Glutamate receptor ionotropic, kainate (Rattus norvegicus) (UniProt P22756+Q01812+P42260+P42264+Q63273)
- METHOD: Apparent dissociation constant of [3H]kainate from Ionotropic glutamate receptor ionotropic kainate was determined in rat cortical slice preparation
Response field label: string, one of 1 (yes) (Kb strictly below 30 µM) or 0 (no).

{"columns": ["STRUCTURE_NOTATION", "ASSIGNED_CATEGORY"],
 "data": [
  ["O=C(O)c1cc(O)c2cc(F)ccc2n1", "0 (no)"],
  ["O=C(O)c1cc(O)c2c(Cl)cccc2n1", "0 (no)"],
  ["COc1ccc2nc(C(=O)O)cc(O)c2c1", "0 (no)"],
  ["Oc1nc2ccccc2nc1O", "0 (no)"],
  ["CSc1ccc2nc(C(=O)O)cc(O)c2c1", "0 (no)"],
  ["Cc1cc2nc(O)c(O)nc2cc1C", "1 (yes)"],
  ["Oc1nc2cccc(Cl)c2nc1O", "0 (no)"],
  ["Cc1cc2[nH]c(=O)c(=O)n(C)c2cc1C", "0 (no)"],
  ["O=C(O)c1cc(O)c2cc(Cl)ccc2n1", "1 (yes)"],
  ["Oc1nc2cc(Cl)cc(Cl)c2nc1O", "1 (yes)"],
  ["COc1nc2cc(C)c(C)cc2nc1O", "0 (no)"],
  ["O=C(O)c1cc(O)c2c(Cl)cc(Cl)cc2n1", "0 (no)"],
  ["CCc1ccc2nc(C(=O)O)cc(O)c2c1", "0 (no)"]
]}

Just for reference, ChEMBL document CHEMBL1125652 is where these values come from.
